- Tested on: MOLM14 cells
- experiment: Cell viability assay (CellTiter-Glo luminescence)
- Assay type: cell-based
- run parameters: Homo sapiens, MOLM-14, read-out: relative cell viability (Fig 6e), replicates, MOLM14, Con. 10 μM, fraction of 0 μM control
measurement type: viability at 10 µM

COC(=O)C12OCC34C(CC5C(C)=C(OC(=O)CC(C)N)C(=O)CC5(C)C3C(O)C1O)OC(=O)C(OC(=O)C=C(C)C)C24 (centres unmarked) : 4.05%
C[C@H](NC(=O)c1c(N)nn2cccnc12)c1cc2cccc(C#Cc3cnn(C)c3)c2c(=O)n1-c1ccccc1 : 23.9%
COC(=O)C12OCC34C(CC5C(C)=C(OC(=O)CNC(=O)OC(C)(C)C)C(=O)CC5(C)C3C(O)C1O)OC(=O)C(OC(=O)C=C(C)C)C24 (centres unmarked) : 3.59%
C[C@H](Nc1ncnc2nc[nH]c12)c1cc2cccc(Cl)c2c(=O)n1-c1ccccc1 : 24.1%

Now consider the entry below.
// COc1c(OCCCN2CCOCC2)ccc2c1N=C(NC(=O)c1cnc(N)nc1)N1CCN=C21 : viability at 10 µM value = 4.25%

* * *

- experiment: Cytotoxicity, cell viability assay in normal cells
- Type: cell-based
- run parameters: human, T-cells, Con. 0.0625 μM, fraction of 0 μM control; read-out: relative cell viability (Fig 6b), replicates
measurement type: viability at 0.0625 μM (%)
Answers are plain numbers, in %.

The reported value for COC(=O)C12OCC34C(CC5C(C)=C(OC(=O)CNC(=O)OC(C)(C)C)C(=O)CC5(C)C3C(O)C1O)OC(=O)C(OC(=O)C=C(C)C)C24 (stereo not shown) in terms of viability at 0.0625 μM is 82.3

* * *

- experiment: Cytotoxicity, cell viability assay in normal cells
- Format: cell-based, human
- run parameters: human, PBMC, Con. 0.00390625 μM, fraction of 0 μM control; read-out: relative cell viability (Fig 6a), replicates
- Procedure: Human peripheral blood mononuclear cells (PBMCs), normal T-cells and B-cells were provided by the University of Pennsylvania Human Immunology Core (HIC), and Patient-derived xenografts (PDXs) were obtained from Fox Chase Cancer Center (FCCC). […] 5000 cells as indicated were cultured in 96-well plate with 100 μl of media. […] Luminescence was detected using a multi-mode reader Cytation 5 (BioTek, Winooski, VT). […]
measurement type: viability at 0.00390625 μM
Enter the number, and then the unit.

COC(=O)C12OCC34C(CC5C(C)=C(OC(=O)CNC(=O)OC(C)(C)C)C(=O)CC5(C)C3C(O)C1O)OC(=O)C(OC(=O)C=C(C)C)C24 (centres unmarked) : 91.7%
COc1c(OCCCN2CCOCC2)ccc2c1N=C(NC(=O)c1cnc(N)nc1)N1CCN=C21 : 106%
CC[C@H](Nc1ncnc2[nH]cnc12)c1nc2cccc(F)c2c(=O)n1-c1ccccc1 : 99.7%
C[C@H](Nc1ncnc2nc[nH]c12)c1cc2cccc(Cl)c2c(=O)n1-c1ccccc1 : 94.6%

The record that follows has no viability at 0.00390625 μM shown yet.
So for C[C@H](NC(=O)c1c(N)nn2cccnc12)c1cc2cccc(C#Cc3cnn(C)c3)c2c(=O)n1-c1ccccc1 , the logged viability at 0.00390625 μM turned out to be 98.8%

The reported measurements were obtained from paper PMC7253423.
